experimental.protocol: growth inhibitors of tim10-1 mutant yeast, primary screen, luminescence, uHTS (AID 463190);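 also: mutant grown at 25 °C; 0% = DMSO wells with yeast and 100% = wells holding no yeast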
settings: S. cerevisiae tim10-1 ts strain growth, BacTiter-Glo, 24 h; at 20 µM; stronger effect = higher value
About 7,300 (2.2%) of roughly 330,000 compounds were called active. The sample holds actives, similar compounds and a random draw of the others, so the mix is not that of the screen.
inhibition values for the compounds below.
// note: answer is a bare numeric in %

Consider the reported inhibition for these compounds:
compound: Cc1ccc(C(=O)NC2CCN(C(=O)Nc3ccccc3Cl)CC2)cc1
inhibition / %: -3.39
//
compound: C[C@@H](NC(=O)OC(C)(C)C)c1nnc(S(=O)(=O)Cc2ccccc2)o1
inhibition / %: 45.1
//
compound: CCCCCCCNC(=O)C1(CC2CC(c3cccc(Br)c3)=NO2)CCN(C(=O)c2cc(OCC)c(OCC)c(OCC)c2)CC1 (stereo unspecified)
inhibition / %: -4.27
//
compound: C[C@H](NC(=O)OC(C)(C)C)c1nnc(SCC(=O)Nc2ccc(Br)cc2)o1
inhibition / %: 20.6

Query (compound): COc1ccccc1CNC(=O)CCCN1C(=O)NC2(CCCC2)C1=O ; field requested: inhibition
6.1

And what about the compound COc1cc(SC)ccc1C(=O)N(Cc1ccccc1)c1ccccc1 ?
26.9

Now this one: CCOC(=O)c1ccc(NC(=O)c2nc[nH]c2C(=O)NCc2ccccc2)cc1
41.1

Would you kindly repeat that for O=C(CCC1CCCCC1)Nc1cc(C(F)(F)F)ccc1N1CCOCC1 ?
27.5

Also CCc1n[nH]c(=S)n1/N=C/c1c[nH]c2ccc(Br)cc12 , if possible.
12

Also OCCCNC(c1ccccc1)c1ccc(O)cc1 (stereo unspecified) ?
-5.16

Can you handle CCN(CC)C(=O)Oc1ccc(OC(=O)N(CC)CC)cc1 next?
32.3
